- System: Malme-3M
- Experiment: NCI tumour cell line growth inhibition, 48 h
Active and inactive are the calls of the source. No stated cut-off is given here; in the data, active = GI50 up to about 1.1 µM and inactive = higher.
Parameter measured: GI50

# example entries with known answers
CN1CC2=C(N=C(S)NC2c2ccccc2)/C(=C/c2ccccc2)C1 (stereo unspecified) = 30.1 µM (inactive)
Cc1cc(C)nc(NS(=O)(=O)c2ccc(Nc3c4ccccc4nc4c(C(=O)NCCCN(CCO)CCO)cccc34)cc2)n1 = 15.4 µM (inactive)
C[C@@H](NC(=O)Cn1c(Cl)nc2ccccc21)c1ccccc1 = > 100 µM (inactive)
O[C@@]1(C#Cc2ccc3c(c2)OCO3)CCC[C@H]1NCc1ccccc1 = 15.2 µM (inactive)
COC(=O)C1C(O)C(C)C(O)OC1C(C)C(O)C(C)/C=C\C=C(/C)C(=O)Nc1c(C)c(OC(C)=O)c2c(c1O)C(=O)C(C)=C1OCOC(/C(C)=C/C(C)=O)=C12 (stereo unspecified) = 13.5 µM (inactive)

Items follow; give GI50 for each.
1. c1ccc2c(c1)c1c3c(c4c(n32)=NCCN4)CCC1
2. CN(C)C(=O)c1ccc([N+](=O)[O-])cc1
3. Cc1c(Cl)nc(Nc2nc3ccccc3[nH]2)nc1Cl
4. N#Cc1c(-c2ccccc2)[nH]c2ccccc2c1=O
5. NC(=O)C1Cc2cc3c(cc21)OCO3 (stereo unspecified)
6. O=C(O)c1cn2c3c(cc(N4CCN(CCO)CC4)cc3c1=O)SCC2
7. O=C(Nn1cc(F)c(=O)[nH]c1=O)C12CC3CC(CC(C3)C1)C2
8. CC(C)=NN/C(=N\c1ccc(Cl)cc1)NS(=O)(=O)c1cc(Cl)c(Oc2ccc([N+](=O)[O-])cc2Cl)c(Cl)c1

31.6 µM (inactive)
> 100 µM (inactive)
> 100 µM (inactive)
41.3 µM (inactive)
> 100 µM (inactive)
37.2 µM (inactive)
6.73 µM (inactive)
70 µM (inactive)

---

Kindly state GI50 for each of the entries shown.
- Test system: M14
- Experiment: NCI tumour cell line growth inhibition, 48 h
Activity calls are given as the source filed them. Rule as the data show it: active = GI50 up to about 1.1 µM and inactive = higher.

Guide cases for GI50, answers given:
NCCCNCc1c2ccccc2c(CNCCCN)c2ccccc12 = > 10 µM (inactive)
C[C@@H]1C[C@]2(C[C@@H](C)C3[C@@H](CC4(C)[C@@H]5CCC6C(C)(C)OC(=O)C=C[C@]67C[C@@]5(CC[C@]34C)OO7)O2)OC1=O (stereo not given in full) = 48.1 µM (inactive)
NC(N)=NCc1ccc2c(c1)OCO2 = > 100 µM (inactive)

Provide each entry's GI50 from the list below.
1. O=C(CCl)N1CCN(c2ccccn2)CC1
2. Cc1ccc(S(=O)(=O)N/C(=N\O)Nc2ccc(Cl)c(Cl)c2)cc1
3. CCCCc1ccc(Nc2nc3c(ncn3C3CC(O)C(CN=[N+]=[N-])O3)c(=O)[nH]2)cc1 (stereo not given)

["16.6 µM (inactive)", "5.58 µM (inactive)", "> 100 µM (inactive)"]

Batch lookup, GI50 per entry.
1. Cc1nc(N2N=C(c3ccc(Cl)cc3)CCC2=O)sc1[N+](=O)[O-]
2. O[C@@]1(C#Cc2ccc3c(c2)OCO3)CCC[C@H]1NCc1ccccc1

1. > 100 µM (inactive)
2. 15.7 µM (inactive)

Would you mind listing GI50 for each of the following compounds?
1. N#CCCN(CCC#N)c1ccc(/C=C2\N=C(COc3ccc(Cl)cc3Cl)OC2=O)cc1
2. Cc1c(Cl)nc(Nc2nc3ccccc3[nH]2)nc1Cl

> 100 µM (inactive)
> 100 µM (inactive)
